Hello, the source for this data is PubChem BioAssay (EPA / NIEHS), in case you need it.

Test: TOX21_p53_BLA_p2_viability: Viability Assessment in the Tox21 HCT-116 p53 Agonism Beta-lactamase Assay, Phase 2 (AID 2283591);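 note: compound exposure lasted 16 h at 37 °C; actives lower the ATP signal meaning cytotoxicity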
Results filed as inconclusive are left out. The source made the active and inactive calls. Rule for the calls: active = hit-call score of the fitted dose curve at least 0.9, where 1 is the maximum; inconclusive = response in the unintended direction; inactive = score below 0.9.
Assign a class; possible classes are active, inactive

input: What is the recorded call for this compound in the test? COC(N)=O
output: inactive

input: What is the recorded call for this compound in the test? CCC1(c2ccccc2)C(=O)N=C(O)NC1=O (centres undefined)
output: inactive

input: What is the recorded call for this compound in the test? O=P1(N(CCCl)CCCl)NCCCO1 (centres undefined)
output: inactive

input: What is the recorded call for this compound in the test? CC(C)(C)OOC(C)(C)C
output: inactive

input: What is the recorded call for this compound in the test? CCOc1ccc(C(C)(C)COCc2cccc(Oc3ccccc3)c2)cc1
output: inactive

input: What is the recorded call for this compound in the test? c1ccc2c(c1)sc1ccccc12
output: inactive

input: What is the recorded call for this compound in the test? CC1(C)CN=C(NN=C(/C=C/c2ccc(C(F)(F)F)cc2)/C=C/c2ccc(C(F)(F)F)cc2)NC1
output: active

input: What is the recorded call for this compound in the test? [N-]=[N+]=[N-]
output: inactive

input: What is the recorded call for this compound in the test? CCCN(CCC)c1c([N+](=O)[O-])cc(C(C)C)cc1[N+](=O)[O-]
output: inactive

input: What is the recorded call for this compound in the test? O=P(Oc1ccccc1)(Oc1ccccc1)Oc1ccccc1
output: inactive

input: What is the recorded call for this compound in the test? O=[N+]([O-])c1ccccc1
output: inactive

input: What is the recorded call for this compound in the test? CCCCN(CCCC)N=O
output: inactive

input: What is the recorded call for this compound in the test? c1nc[nH]n1
output: inactive

input: What is the recorded call for this compound in the test? C/C(=N\NC(=O)Nc1cc(F)cc(F)c1)c1ncccc1C(=O)O
output: inactive
